- system_name: EGFR V3 (Homo sapiens, UniProt P00533, DELINS30-297G)
- Construct: expressed in transfected cells; host or cells: BaF3 (murine pro-B) cells, retroviral transduction with pMXs-IRES-Blasticidin
- Sequence (P00533 with tags, fused parts or gaps DELINS30-297G): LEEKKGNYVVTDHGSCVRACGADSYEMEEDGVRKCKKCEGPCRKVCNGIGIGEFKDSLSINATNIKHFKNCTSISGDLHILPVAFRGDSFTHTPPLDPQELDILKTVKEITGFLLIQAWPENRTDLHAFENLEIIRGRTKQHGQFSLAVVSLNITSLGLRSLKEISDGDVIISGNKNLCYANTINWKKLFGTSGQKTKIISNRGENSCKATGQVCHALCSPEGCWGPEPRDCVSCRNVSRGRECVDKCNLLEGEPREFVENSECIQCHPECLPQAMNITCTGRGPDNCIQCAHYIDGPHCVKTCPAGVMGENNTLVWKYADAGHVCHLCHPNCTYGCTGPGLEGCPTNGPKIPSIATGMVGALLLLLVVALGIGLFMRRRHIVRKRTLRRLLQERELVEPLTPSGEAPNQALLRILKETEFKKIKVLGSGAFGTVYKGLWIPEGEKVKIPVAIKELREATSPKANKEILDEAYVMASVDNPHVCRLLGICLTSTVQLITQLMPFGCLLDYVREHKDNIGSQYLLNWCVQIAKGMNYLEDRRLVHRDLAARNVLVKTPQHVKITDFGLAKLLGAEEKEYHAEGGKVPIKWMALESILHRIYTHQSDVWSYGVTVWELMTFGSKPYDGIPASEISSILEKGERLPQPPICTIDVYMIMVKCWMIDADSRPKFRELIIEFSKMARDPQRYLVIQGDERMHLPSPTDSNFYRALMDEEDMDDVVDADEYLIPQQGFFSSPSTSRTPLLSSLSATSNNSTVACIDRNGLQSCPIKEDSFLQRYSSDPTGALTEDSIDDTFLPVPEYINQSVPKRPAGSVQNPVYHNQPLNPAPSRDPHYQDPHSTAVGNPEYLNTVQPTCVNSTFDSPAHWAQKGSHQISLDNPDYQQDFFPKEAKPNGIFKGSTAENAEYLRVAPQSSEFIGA
- assay_procedure: BaF3 cell proliferation assay (CellTiterGlo), EGFR V3
- Assay type: cell-based
- experimental_conditions: Table A; BaF3 cells, 3 days
reported_endpoint: IC50

Use the examples below as a reference point.
[[record]]
compound = "C=CC(=O)Nc1cc2c(Nc3ccc(OCc4ccccn4)c(Cl)c3)ncnc2cc1C#CC1(C)CCN(C)CC1"
reported_endpoint = "IC50"
result = "≤ 0.05 µM"

[[record]]
compound = "CN(C)C/C=C/C(=O)Nc1cc2c(Nc3cccc(Cl)c3F)ncnc2cc1C#C[C@@]1(C)CCN(C)C1"
reported_endpoint = "IC50"
result = "0.05 to 0.1 µM"

[[record]]
compound = "C=CC(=O)Nc1cc2c(Nc3cccc(Cl)c3F)ncnc2cc1C#C[C@@]1(F)CCN(C)C1"
reported_endpoint = "IC50"
result = "≤ 0.05 µM"

[[record]]
compound = "C=CC(=O)Nc1cc2c(Nc3ccc(Cl)c(Cl)c3F)ncnc2cc1C#CC1(C)CCN(C)C1 (stereo not drawn)"
reported_endpoint = "IC50"
result = "≤ 0.05 µM"

[[record]]
compound = "CCC(=O)Nc1cc2c(Nc3cccc(Cl)c3F)ncnc2cc1C#C[C@@]1(C)CCN(C)C1"
reported_endpoint = "IC50"
result = "> 0.5 µM"

[[record]]
compound = "C=CC(=O)Nc1cc2c(Nc3cccc(Cl)c3F)ncnc2cc1C#CC1(C)CN(C)CCO1 (stereo not drawn)"
reported_endpoint = "IC50"
result = "≤ 0.05 µM"

[[record]]
compound = "CN(C)C/C=C/C(=O)Nc1cc2c(Nc3cccc(Cl)c3F)ncnc2cc1C#CC1(C)CCOC1 (stereo not drawn)"
reported_endpoint = "IC50"
result = "≤ 0.05 µM"

[[record]]
compound = "CN1C[C@H]2C[C@@]2(C#Cc2cc3ncnc(Nc4cccc(Cl)c4F)c3cc2NC(=O)/C=C/CN2C3COCC2C3)C1"
reported_endpoint = "IC50"
result = "≤ 0.05 µM"


Okay, now this compound:
[ask] Look up IC50 for this compound: C=CC(=O)Nc1cc2c(Nc3cccc(Cl)c3F)ncnc2cc1C#C[C@@]1(OC)CCN(C)C1
[reply] ≤ 0.05 µM
